The threshold is 70 °C. Values of melting point beneath it are tagged MET; values meeting or exceeding it are tagged NOT MET.

These recorded examples may help you get a feel for the data.
chemical_structure=C[C@@H](S)C(=O)O class_name=MET
chemical_structure=CCCC(=O)Nc1ccccc1 class_name="NOT MET"
chemical_structure=CN(C)Cc1c[nH]c2ccccc12 class_name="NOT MET"
chemical_structure=CCO[Si](OCC)(OCC)OCC class_name=MET
chemical_structure=CCCCCCCCCCCCCCCCCCCC(=O)OC class_name=MET
chemical_structure=NC(=O)N1c2ccccc2CC(=O)c2ccccc21 class_name="NOT MET"

Enquiry: Identify whether the compound "C=C[C@H]1C[N@@]2CC[C@H]1C[C@H]2[C@H](O)c1ccnc2ccc(OC)cc12.Cl" records melting point below 70 °C.
Return: NOT MET

Enquiry: Does this compound meet the criterion melting point < 70 °C? "Brc1ccc2c(c1)Oc1cc(Br)ccc1O2"
Return: NOT MET

Enquiry: For "CC#CCCCCC" , is the recorded melting point below the cut-off of 70 °C?
Return: MET

Enquiry: Say whether its melting point is strictly beneath 70 °C. Entry: "c1cc[nH]c1"
Return: MET

Enquiry: Answer whether the compound "N#Cc1cccc(C=O)c1" has melting point strictly less than 70 °C
Return: NOT MET

====

settings: fish
Exam item: assign true to entries whose log10 BCF is below 1 and false to entries at or above 1. Note that a value of exactly 1 receives false.

Use these answered entries as a reference point.
molecule=Clc1ccc(Cl)c(-c2ccccc2)c1 class_name=false
molecule=Cc1cc(=O)nc(C(C)C)[nH]1 class_name=true
molecule=Nc1ccc(Cl)cc1 class_name=true
molecule="CCC(C)c1cccc(C(C)CC)c1O (stereo unspecified)" class_name=false
molecule=Cc1ccc(Cl)cc1[N+](=O)[O-] class_name=false
molecule=COc1ccccc1[N+](=O)[O-] class_name=true
molecule=Clc1c(Cl)c(Cl)c2c(Cl)c(Cl)c(Cl)c(Cl)c2c1Cl class_name=false
molecule="C1=CC2C3C=CC(C3)C2C1 (stereo unspecified)" class_name=false
molecule=CC(C)Oc1cccc(NC(=O)c2ccccc2C(F)(F)F)c1 class_name=false
molecule=Nc1cccc2ccccc12 class_name=false

Enquiry: Check if log10 BCF falls below 1 for "Clc1ccc(Cl)c(Cl)c1Cl" .
Return: false

Enquiry: Hello, I'm reviewing records and need to know if log10 BCF of "ClCCl" is below 1. Could you check?
Return: false

Enquiry: Here's an entry: "Nc1cccc(Cl)c1" . Is its log10 BCF below 1?
Return: true

====

assay readout: melting point (°C)
Number in °C, nothing else.

Example results:
chemical_structure=O=C(O)COc1ccc(C(=O)c2cccs2)c(Cl)c1Cl assay_readout="melting point" result=149
chemical_structure=CC(C)(C)CC(C)(C)c1ccc(O)c(Cc2ccc(Cl)cc2Cl)c1 assay_readout="melting point" result=78
chemical_structure=Oc1cccc(Nc2ccccc2)c1 assay_readout="melting point" result=81.5
chemical_structure=CNC(=O)NC assay_readout="melting point" result=108

Data point: "COC(=O)CC(=O)OC" ; melting point = -61.9

Entry "Cc1cccc(C(=O)Cl)c1" — recorded melting point = -23

The molecule listed as "CNC(=O)Oc1cc(C)c(C)c(C)c1" shows melting point equal to 109

Notebook: "O=C1CCO1" , melting point read as -33.4

====

Quick reference: boiling point of the listed items.
// units = °C; emit number, no label

compound=CNCc1ccco1 result=149
compound=NCc1ccco1 result=146
compound=Fc1ccc(Br)cc1 result=152
compound=COc1ccccc1O result=205
compound=CCc1ccc(C)cc1C result=188

Briefly, boiling point measured for "FCCCCBr" : 135

Documented boiling point of "CCO[Si](OCC)(OCC)OCC" : 169

boiling point recorded for this compound, "Cc1ccccc1Cc1ccccc1" , is 280

// boiling point lookup, compound = "O=C(O)/C=C/c1ccccc1" , result: 300

# boiling point (compound: CC(C)C(C)N (stereo not drawn) ) is 85.5

Just so you know, measured boiling point for "Nc1ccc2ccccc2c1" came out at 300

Per the records, this compound ( "C#CC(OCC)OCC" ) has boiling point equal to 139

Quick note, boiling point for "c1ccc(-c2cc(-c3ccccc3)cc(-c3ccccc3)c2)cc1" landed at 462

Please fill in: boiling point reported for "CCOc1ccc(C#N)cc1" = 258

Short answer for "CC(=O)C(Cl)Cl" : boiling point was 120

compound "CCOC(=O)C1CCCCC1" , boiling point observed: 196

The compound listed as "CCCCCCCCCCCCCCCCCC(=O)OC" shows boiling point equal to 370

Reported boiling point ( "CCCCCNCCCCC" ) = 202

The value of boiling point measured for the compound "CCCCCCc1ccccc1" turned out to be 226

What the record says about "C1=CCNCC1" : boiling point is 108

Note to self: boiling point recorded for "CC(C)(C)c1ccc(O)c(C(C)(C)C)c1" was 264

====

# label = yes (1) if melting point >= 100 °C else no (0)

Enquiry: Please indicate if the recorded melting point for "CCOC(=O)c1cccc(O)c1" meets or exceeds 100 °C.
Return: no (0)

Enquiry: Would you say "CNC(=O)Oc1cccc(C(C)C)c1" shows melting point at minimum 100 °C?
Return: no (0)

Enquiry: Is it the case that "CC(C)(C)c1cc(C(C)(C)c2ccc(O)c(C(C)(C)C)c2)ccc1O" has melting point reaching or exceeding 100 °C?
Return: yes (1)

====

boiling point overview

Some solved cases for reference:
compound=Cc1ccc(NCc2ccccc2)cc1 result="319 °C"
compound="CCCCCCC(C)NC(C)CCCCCC (stereo not given)" result="283 °C"
compound=CCCCCCCCCCCCCCCCCCCl result="348 °C"
compound=CCCc1ccc(OC)cc1 result="212 °C"
compound=COc1cc(OC)c(C(=O)O)cc1OC result="300 °C"
compound=CCOCCC#N result="154 °C"
compound=C[Si](C)(C)O[Si](C)(C)O[Si](C)(C)O[Si](C)(C)O[Si](C)(C)O[Si](C)(C)O[Si](C)(C)O[Si](C)(C)O[Si](C)(C)C result="308 °C"
compound=CC[Si](Cl)(Cl)Cl result="100 °C"
compound="CCCC(O)C(C)C (stereo not given)" result="141 °C"
compound=CCCCCCCCC(=O)OC result="214 °C"

Looking up "O=C(Cc1ccccc1)Cc1ccccc1" , I see its boiling point listed as 331 °C

Value of boiling point reported for the compound "CC(=O)c1ccc2ccccc2c1" is 302 °C

Lab note: measured boiling point of "CC(=O)Oc1ccccc1C" was 208 °C

Sample "CCc1ccc(CC)cc1" ; boiling point observed: 184 °C

response.value for "CC(C)CC#N" (field: boiling point) = 128 °C

====

assay readout: boiling point (°C)
API: value field is a number in °C; no unit string.

Here's what some known entries look like.
compound=Oc1ccc(C2CCCCC2)cc1 result=294
compound=Cc1cc(O)ccc1O result=272
compound="CCC(C)CO (stereo not drawn)" result=128
compound=O=C(O)C1CCCC1 result=212
compound="C=CC(C)CCC (stereo not drawn)" result=83.9

Input CCC(C)c1ccc(N)cc1 (stereo not drawn) . Output boiling point: 238

Recorded boiling point (compound "Fc1ccc(Cl)cc1" ): 130

compound "CN(C)c1cccc2ccccc12" , boiling point observed: 280

Entry under test: "CC(C)=CCCC(C)=CC(=O)O" . Its boiling point was 250

boiling point reading for "CC(C)CN(C)C" : 80.5

====

Labels assigned by melting point range: lower bin = under 20 °C, middle bin = from 20 °C up to 100 °C, upper bin = 100 °C and over

Check out these entries, answers already filled in.
molecule=O=C(O)[C@@H]1CCCO1 class_name="middle bin"
molecule=CCCCCCCCCCCCCCCCCCCCCCCCCCCCCCCCCCCC class_name="middle bin"
molecule=Cc1ccc(N=c2sccn2C)c(C)c1 class_name="middle bin"
molecule=CC(=O)Nc1ccc(C)c(NS(=O)(=O)C(F)(F)F)c1 class_name="upper bin"
molecule=C#C[C@]1(O)CC[C@H]2[C@@H]3CCC4=CC(=O)CC[C@@H]4[C@H]3CC[C@@]21C class_name="upper bin"
molecule=CC1CCC(=O)CC1 class_name="lower bin"
molecule=Cc1cccc(C(=O)O)c1 class_name="upper bin"
molecule=Clc1ccc(Cn2c(CN3CCCC3)nc3ccccc32)cc1 class_name="upper bin"
molecule=COC(=O)CCCC(=O)OC class_name="lower bin"
molecule="CC(CCl)OP(=O)(OC(C)CCl)OC(C)CCl (configuration not stated)" class_name="lower bin"

Enquiry: Dear colleague, I would appreciate it if you could identify the bin for "CC(=O)CCC=C(C)C" and reply at your convenience.
Return: lower bin

Enquiry: Category of "NC(=O)c1cccc(N)c1" , please.
Return: upper bin

Enquiry: Hi, small favor: classify "[O-][n+]1ccccc1S" by its melting point when you get a moment.
Return: middle bin

Enquiry: Each molecule maps to one class by melting point. Which class for "Clc1nc(Cl)nc(Cl)n1" ?
Return: upper bin

Enquiry: Textbook exercise: identify the category of the molecule given here, "CC(=O)CCC(C)C" , according to its measured value.
Return: lower bin

Enquiry: Kindly identify the class of "CCCC(C)CCC" .
Return: lower bin

Enquiry: Form: Item = Cc1ncc([N+](=O)[O-])n1CC(C)O (configuration not stated) ; Class = ?
Return: middle bin

Enquiry: Lab note: which band did "CC(=O)Oc1c(I)cc(I)cc1C(=O)Nc1ccc(Cl)cc1" land in?
Return: upper bin

The reported measurements were obtained from the OPERA property sets (Mansouri et al. 2018).
